system.name: Human COX-1 (Homo sapiens)
Construct: A 2.0 kb fragment containing the coding region of either human or murine COX-1 or human or murine COX-2
assay.comment: Fast assay for COX-1 activity (PGE2 formed, ELISA)
condition.info: recombinant enzyme in CHAPS-solubilized insect cell membranes; 10 min pre-incubation at 25° C.; 10 μM arachidonic acid
measured.parameter: IC50

compound.structure.string	IC50
Cc1ccc(-n2nc(C(F)(F)F)cc2-c2cc(F)c(S(C)(=O)=O)c(F)c2)cc1Cl	> 100 µM

Ask | Which IC50 is listed for Cc1onc(-c2ccccc2)c1-c1cc(F)c(S(C)(=O)=O)c(F)c1 ?
Reply | > 100 µM

Ask | Which IC50 is listed for Cc1ccc(-n2nc(C(F)F)cc2-c2cc(F)c(S(C)(=O)=O)c(F)c2)cc1Cl ?
Reply | > 100 µM

Ask | Which IC50 is listed for CS(=O)(=O)c1c(F)cc(-c2cc(C(F)(F)F)nn2-c2cccc(C(F)(F)F)c2)cc1F ?
Reply | > 100 µM

Ask | Which IC50 is listed for CS(=O)(=O)c1c(F)cc(-c2cc(C(F)(F)F)nn2-c2ccc(OC(F)(F)F)cc2)cc1F ?
Reply | > 100 µM

###

system.name: Human COX-1 (Homo sapiens)
Construct: A 2.0 kb fragment containing the coding region of either human or murine COX-1 or human or murine COX-2
assay.comment: Fast assay for COX-1 activity (PGE2 formed, ELISA)
condition.info: recombinant enzyme in CHAPS-solubilized insect cell membranes; 10 min pre-incubation at 25° C.; 10 μM arachidonic acid
measured.parameter: pIC50
On this scale, pIC50 is minus log10 of a concentration expressed in M (mol/L).

compound	pIC50
CS(=O)(=O)c1cc(F)c(-c2cc(C(F)(F)F)nn2-c2ccc(Cl)cc2)cc1F [Example 7]	4.25

Ask | Which pIC50 is listed for COc1ccc(-n2nc(C(F)(F)F)cc2-c2cc(F)c(S(C)(=O)=O)cc2F)cc1 [Example 8] ?
Reply | 4.83

###

system.name: Human COX-1 (Homo sapiens, UniProt P23219)
Construct: A 2.0 kb fragment containing the coding region of either human or murine COX-1 or human or murine COX-2
Sequence (P23219 24-599): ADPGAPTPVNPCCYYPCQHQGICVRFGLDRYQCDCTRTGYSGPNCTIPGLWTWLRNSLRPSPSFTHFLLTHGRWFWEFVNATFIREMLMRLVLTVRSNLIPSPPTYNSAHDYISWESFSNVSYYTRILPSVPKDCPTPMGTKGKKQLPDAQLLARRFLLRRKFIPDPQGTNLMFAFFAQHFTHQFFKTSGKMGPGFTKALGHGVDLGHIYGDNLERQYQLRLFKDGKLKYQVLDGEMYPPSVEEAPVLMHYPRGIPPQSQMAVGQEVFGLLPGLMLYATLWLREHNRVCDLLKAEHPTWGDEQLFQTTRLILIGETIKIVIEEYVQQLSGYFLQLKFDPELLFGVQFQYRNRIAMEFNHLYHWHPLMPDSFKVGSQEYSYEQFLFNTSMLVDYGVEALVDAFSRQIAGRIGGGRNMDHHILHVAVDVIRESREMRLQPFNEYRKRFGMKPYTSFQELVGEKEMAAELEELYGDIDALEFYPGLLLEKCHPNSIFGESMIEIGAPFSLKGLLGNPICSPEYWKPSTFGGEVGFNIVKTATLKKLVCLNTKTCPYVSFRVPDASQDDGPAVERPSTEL
assay.comment: Fast assay for COX-1 activity (PGE2 formed, ELISA)
condition.info: recombinant enzyme in CHAPS-solubilized insect cell membranes; 10 min pre-incubation at 25° C.; 10 μM arachidonic acid
pIC50: −log10 of the molar value.
measured.parameter: pIC50

Example molecules with recorded pIC50:
molecule	pIC50
CS(=O)(=O)c1c(F)cc(-c2cc(C(F)(F)F)nn2-c2ccc(F)cc2)cc1F [Example 1]	< 4.00
CS(=O)(=O)c1c(F)cc(-c2cc(C(F)F)nn2C2CCCCC2)cc1F [Example 5]	< 4.00

API: the following record is the query input.
Ask | Which pIC50 is listed for Cc1onc(-c2ccccc2)c1-c1cc(F)c(S(N)(=O)=O)c(F)c1 [Example 15] ?
Reply | < 4.00
